Test: Solubility studies using micronized glibenclamide: unbuffered saline
Assay type: physicochemical
Details: 2% saline in water, pH 12.1, saline or isotonic, thermodynamic from solid, Saline 2%, pH 12.10, read-out: GLB mg/ml (glibenclamide in solution)
Text: This was done iteratively until pH was stable. “GLB” indicates glibenclamide.
observed property: solubility (mg/mL)
One number for each entry, in mg/mL.

# input Return solubility (reported value) for this compound: COc1ccc(Cl)cc1C(=O)NCCc1ccc(S(=O)(=O)NC(=O)NC2CCCCC2)cc1 [Glibenclamide]
# output 0.216

====

Experiment: Solubility studies using micronized glibenclamide: unbuffered 2% sucrose and water
Type: physicochemical
Conditions: aqueous buffer, thermodynamic from solid, water without bulking agent, pH 8.65, read-out: GLB mg/ml (glibenclamide in solution)
observed property: solubility (mg/mL)
Give bare numbers, in mg/mL.

# input Return solubility (reported value) for this compound: COc1ccc(Cl)cc1C(=O)NCCc1ccc(S(=O)(=O)NC(=O)NC2CCCCC2)cc1 [Glibenclamide]
# output 0.799

====

Assay: Solubility studies using micronized glibenclamide: unbuffered saline
Format: physicochemical
Conditions: 2% saline in water, saline or isotonic, thermodynamic from solid, Saline 2%, pH 10.98, read-out: GLB mg/ml (glibenclamide in solution)
observed property: solubility (mg/mL)
Give bare numbers, in mg/mL.

# input Return solubility (reported value) for this compound: COc1ccc(Cl)cc1C(=O)NCCc1ccc(S(=O)(=O)NC(=O)NC2CCCCC2)cc1 [Glibenclamide]
# output 0.192

====

Test: Solubility of glibenclamide in buffered water solutions (Britton Robinson)
Format: physicochemical
Details: Britton Robinson buffer, pH 10.1, aqueous buffer, pH 10.100, read-out: GLB mg/mL (glibenclamide in solution)
observed property: solubility (mg/mL)
Give bare numbers, in mg/mL.

# input Return solubility (reported value) for this compound: COc1ccc(Cl)cc1C(=O)NCCc1ccc(S(=O)(=O)NC(=O)NC2CCCCC2)cc1 [Glibenclamide]
# output 2.35

====

Test: Solubility studies using micronized glibenclamide: unbuffered saline
Format: physicochemical
Details: 2% saline in water, saline or isotonic, thermodynamic from solid, Saline 2%, pH 10.31, read-out: GLB mg/ml (glibenclamide in solution)
observed property: solubility (mg/mL)
Answers are plain numbers, in mg/mL.

# input Return solubility (reported value) for this molecule: COc1ccc(Cl)cc1C(=O)NCCc1ccc(S(=O)(=O)NC(=O)NC2CCCCC2)cc1 [Glibenclamide]
# output 0.215

====

Assay: Solubility studies using micronized glibenclamide: unbuffered saline
Assay type: physicochemical
Conditions: 0.9% saline in water, pH 8.07, saline or isotonic, thermodynamic from solid, Saline 0.9%, pH 8.070, read-out: GLB mg/ml (glibenclamide in solution)
observed property: solubility (mg/mL)
Numbers only, in mg/mL.

# input Return solubility (reported value) for this compound: COc1ccc(Cl)cc1C(=O)NCCc1ccc(S(=O)(=O)NC(=O)NC2CCCCC2)cc1 [Glibenclamide]
# output 0.024

====

Assay: Solubility studies using micronized glibenclamide: unbuffered saline
Format: physicochemical
Settings: 2% saline in water, saline or isotonic, thermodynamic from solid, Saline 2%, pH 9.49, read-out: GLB mg/ml (glibenclamide in solution)
observed property: solubility (mg/mL)
Numbers only, in mg/mL.

# input Return solubility (reported value) for this compound: COc1ccc(Cl)cc1C(=O)NCCc1ccc(S(=O)(=O)NC(=O)NC2CCCCC2)cc1 [Glibenclamide]
# output 0.205

Data provenance is patent US8858997B2.
